assay.details: NCI Yeast Anticancer Drug Screen. Data for the mlh1 rad18 strain (AID 175)
condition.summary: S. cerevisiae mlh1 rad18 strain growth inhibition; at 50.0 µM; active compounds read high
This is part of a sample that, as a whole, favours compounds with a hit. Of some 79,000 tested, about 15% had one in any assay.
Record 1 (yes) whenever growth inhibition is at 60% or higher; record 0 (no) when lower.

Quick check, growth inhibition >= 60%? N#C/C(=C\C(Cl)=C/c1ccccc1)C(N)=S
0 (no)

Next:
Entry COc1ccc(CC2=CC(=O)C(=O)C=C2C)cc1 : is its growth inhibition no less than 60%?
0 (no)

In plain terms: is recorded growth inhibition at least 60% for CCCCC(Cc1ccccc1)(C(=O)O)c1ccccc1 (stereo unspecified) ?
1 (yes)

###

assay.details: NCI Yeast Anticancer Drug Screen. Data for the mec2-1 strain (AID 157)
condition.summary: S. cerevisiae mec2-1 strain, at 50.0 µM
Compounds without any hit were thinned out: in the full panel of roughly 79,000, 15% have a hit. Activity calls are given as the source filed them. No stated cut-off is given here; in the data, active means growth inhibition above about 70%; inactive means the rest.
Field 'call' accepts true (1) = active, false (0) = inactive

Answered examples (5):
Give the logged outcome of this assay for the following compound: CCCCCCCCCCCCNC(=O)NCC(OCC)OCC
true (1)

Per the records of this test, what outcome belongs to NC(=O)NC(=O)N/N=C/c1ccc([N+](=O)[O-])o1 ?
false (0)

// param item: C/C(=N\NC(=S)N1CCC(O)CC1)c1ccccn1 ; yields the recorded call
true (1)

Just curious, what result did COc1c2c(c(C)c3ccc4ccccc4c13)CCN=C2 get here?
false (0)

// outcome(item) with item = Cc1cc(O)cc(C)c1[N+](=O)[O-]
false (0)

Continuing:
Which outcome was assigned to CCCCCCCCCCCCCC(N)c1ccc(C)cc1 (stereo not drawn) in this test?
true (1)

Hi team, can someone confirm the assay call for CCN(CC)CCNc1ccc(C)c2sc3c(OC)cccc3c(=O)c12 ?
false (0)

Status in this test for O=C(c1ccc(Cl)c([N+](=O)[O-])c1)c1ccc(Cl)c([N+](=O)[O-])c1 ?
true (1)

Hi, sorry to bother you, what did the test record for Cc1nc(N)sc1N=Nc1ccc(Cl)cc1 ?
false (0)

Which outcome did this test record for the compound CCOC(=O)C(CC)(CCc1ccccc1[N+](=O)[O-])C(=O)OCC ?
false (0)

For this compound, state the assay outcome: COc1ccc(/C=C2\NC(=O)NC2=O)cc1
false (0)

Recorded call for COc1ccc2cc(CNCCCCCCCCNCc3ccc4cc(OC)ccc4c3)ccc2c1 ?
true (1)

Any idea what this test logged for CC/C(=C(/CC)c1ccc(O)cc1)c1ccc([O-])cc1.CC/C(=C(/CC)c1ccc(O)cc1)c1ccc([O-])cc1.O=C([CH-]C(=O)c1ccccc1)c1ccccc1.O=C([CH-]C(=O)c1ccccc1)c1ccccc1.[Ti+4] ?
true (1)

###

Recorded growth inhibition, one value per entry.
assay.details: NCI Yeast Anticancer Drug Screen. Data for the cln2 rad14 strain (AID 165);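 further: 0% = growth equal to vehicle treated cultures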
condition.summary: S. cerevisiae cln2 rad14 strain, at 5.0 µM (retest, dose inferred, filed as 0.5), active compounds read high
About 79,000 compounds went through this panel and 15% of them were active in at least one assay; those are over-represented in the sample as a whole.
Answer in %, number only, no unit symbol.

Below, 5 compounds whose answers are already recorded.
Using the record for CCCC/C=C1/CCC(CN(C)C)C1=O (stereo not given) , report its growth inhibition.
6

So what does the record say about growth inhibition for O=C(c1ccc(O)cc1)c1ccccc1O ?
-1

Look up growth inhibition: C/C(=N/NC(=S)N1CCCC1)c1cccc(/C(C)=N\NC(=S)N2CCCC2)n1
1

If you can, please state the reported growth inhibition value of CCCCCCCOC(=O)CSC#N .
29

Request the reported growth inhibition associated with CC(=O)OC(OC(C)=O)c1ccc([N+](=O)[O-])s1
1

Attention now shifts to the item below.
Can you share its growth inhibition? I mean this compound: Oc1c(Br)cc(Cl)cc1Br
-11
